pEC50 for assorted compounds
system: HIV-1IIIB; test: Anti-HIV-1 antiviral assay, laboratory strain HIV-1IIIB, RT activity in culture supernatants; conditions: Human immunodeficiency virus 1, MT2, read-out: EC50, mean values ± SD
pEC50: −log10 of the molar value.
quantityName: pEC50

> print(dat)
                                   compound  quantityname  observed
1  Nc1ccn([C@@H]2CS[C@H](CO)O2)c(=O)n1 [lamivudine, reference compound]         pEC50      7.04
2  Nc1nc2c(ncn2[C@H]2CO[C@@H](CO)O2)c(=O)[nH]1 [DXG, (−)-β-D-1,3-dioxolane guanine]         pEC50      7.07
3  Nc1nc(N)c2ncn([C@H]3CO[C@@H](CO)O3)c2n1 [DAPD, (−)- -D-2,6-diaminopurine-1,3-dioxolane]         pEC50      6.27
4  Cc1cn([C@H]2C[C@H](N=[N+]=[N-])[C@@H](CO)O2)c(=O)[nH]c1=O [AZT, zidovudine, reference compound]         pEC50      8.12
